System: K-562 leukemia
Experiment: NCI tumour cell line growth inhibition, 48 h
Result Type: TGI

[[record]]
smiles_notation = "CN(C)/[N+]([O-])=N/Oc1cc(Nc2cccc(C(=O)O)c2)c([N+](=O)[O-])cc1[N+](=O)[O-]"
result_type = "TGI"
result = "> 100 µM"

[[record]]
smiles_notation = "S=CN1CCCCC1"
result_type = "TGI"
result = "> 100 µM"

[[record]]
smiles_notation = "CC[C@@H]1C[C@@H]2CN3CCc4c([nH]c5ccc(OC)cc45)C(COC(=O)c4ccc(OC)c(OC)c4)(C2)C13"
result_type = "TGI"
result = "43 µM"

[[record]]
smiles_notation = "O=C1OC(c2ccco2)=N/C1=C\\c1ccc(Cl)c(Cl)c1"
result_type = "TGI"
result = "> 100 µM"

[[record]]
smiles_notation = "NC(=O)NC(=O)c1cnccn1"
result_type = "TGI"
result = "> 100 µM"

[[record]]
smiles_notation = "CCN(CC)c1ccc(/C=C(\\C#N)c2nc(N)nc(N3N=C(C)CC3(C)C)n2)cc1"
result_type = "TGI"
result = "> 68.7 µM"

[[record]]
smiles_notation = "CCNC(=O)C[C@@H]1N=C(c2ccc(Cl)cc2)c2cc(OC)ccc2-n2c(C)nnc21"
result_type = "TGI"
result = "> 100 µM"

[[record]]
smiles_notation = "Cc1cc(-c2ccc(C(=O)O)[nH]2)on1"
result_type = "TGI"
result = "> 100 µM"


----------
Test system: NCI-H226 lung
Assay: NCI tumour cell line growth inhibition, 48 h; in the data active means GI50 below about 0.43 µM; inactive means the rest
Outcomes: active, inactive

[[record]]
smiles_notation = "Cc1[nH]c(=O)[nH]c(=O)c1N(CCF)CCCl"
assigned_label = "inactive"

[[record]]
smiles_notation = "CCC1=C(C)/C(=C/c2[nH]c(C)c(C(=O)CCCCC(=O)OC)c2C)N=C1c1ccc[nH]1"
assigned_label = "inactive"

[[record]]
smiles_notation = "Cn1ccnc1C(=O)/C=C/c1ccc(CC(=O)Nc2ccc(Cl)cc2)cc1"
assigned_label = "inactive"

[[record]]
smiles_notation = "COc1ccc(C(=O)Cn2c(C(=O)c3ccc(OC)cc3)nc3ccccc32)cc1"
assigned_label = "inactive"

[[record]]
smiles_notation = "Oc1ccc2ccccc2c1C=NCCCN=Cc1c(O)ccc2ccccc12"
assigned_label = "inactive"

[[record]]
smiles_notation = "CCC/C(=N\\NC(=S)N1CCN(c2ccccn2)CC1)c1ccccn1"
assigned_label = "active"

[[record]]
smiles_notation = "Cc1ccc(Nc2nc(NCCO)c3ccccc3n2)cc1C"
assigned_label = "inactive"


----------
Test system: MCF7 breast
Test: NCI tumour cell line growth inhibition, 48 h
Result Type: TGI

[[record]]
smiles_notation = "COc1cccc(-c2nn(-c3ccccc3)cc2-c2ccnc(NCCNS(=O)(=O)c3ccc(Cl)cc3)c2)c1"
result = "18.4 µM"

[[record]]
smiles_notation = "NC(=O)NC(=O)c1cnccn1"
result = "> 100 µM"

[[record]]
smiles_notation = "CCn1c(=O)c(-c2ccn[nH]2)cc2c(C)nc(N)nc21"
result = "> 100 µM"


----------
Test system: NCI-H460 lung
Assay: NCI tumour cell line growth inhibition, 48 h
TGI listing for selected compounds.
Result Type: TGI

[[record]]
compound = "COc1ccc(/C=C2\\C=Cc3ccccc32)cc1OC"
result = "> 100 µM"

[[record]]
compound = "CC(=O)N=C(N=Nc1c(O)[nH]c2ccc(C)cc12)NC(C)=O"
result = "> 100 µM"

[[record]]
compound = "COc1c(CC=C(C)C)c(O)c(C(CC(C)C)c2c(O)c(C(C)=O)c(O)c3c2OC(C(C)(C)O)C3)c(O)c1C(C)=O (stereo not given)"
result = "> 12.5 µM"

[[record]]
compound = "Nc1ccccc1C#CC#Cc1ccccc1N"
result = "28.4 µM"

[[record]]
compound = "O=C(Nc1ccc(S(=O)(=O)Nc2nccs2)cc1)c1cccnc1Nc1cccc(Cl)c1"
result = "32.6 µM"

[[record]]
compound = "C/C(CN1C(=O)c2ccccc2C1=O)=N\\NS(=O)(=O)c1cccc([N+](=O)[O-])c1"
result = "> 100 µM"

[[record]]
compound = "CC(=O)ON(OC(C)=O)c1ccc(C)cc1"
result = "> 100 µM"

[[record]]
compound = "COC(=O)C1(C)C=C(Nc2ccccc2)C(=O)N1c1ccccc1 (stereo not given)"
result = "> 100 µM"

[[record]]
compound = "Cn1ncc(=S)[nH]c1=S"
result = "> 100 µM"

[[record]]
compound = "Oc1c(CN2CCC(N3CCOCC3)CC2)cc(Cc2cc(CN3CCC(N4CCOCC4)CC3)c(O)c3ncccc23)c2cccnc12"
result = "16.6 µM"

[[record]]
compound = "CC1=CC=NN2C(=O)[C@H](C)C2C1 (stereo not given in full)"
result = "> 100 µM"

[[record]]
compound = "NC(N)=NCCCC(N=c1c2ccccc2n(O)c2ccccc12)C(=O)O (stereo not given)"
result = "> 100 µM"

[[record]]
compound = "COc1cccc(-c2nn(-c3ccccc3)cc2-c2ccnc(NCCNS(=O)(=O)c3ccc(Cl)cc3)c2)c1"
result = "> 100 µM"

[[record]]
compound = "Cn1c(=O)oc2cc(C(=O)CSC(=S)N3CCCCCC3)ccc21"
result = "> 100 µM"

[[record]]
compound = "C=CC1(C)CCC(C(C)C(=O)C(C=C(C)C)OC(C)=O)C12C(=O)Oc1ccccc1C2=O (stereo not given)"
result = "> 100 µM"


----------
Test system: SNB-19 CNS
Experiment: NCI tumour cell line growth inhibition, 48 h
Result Type: TGI

[[record]]
compound = "CCn1c(=O)c(-c2ccn[nH]2)cc2c(C)nc(N)nc21"
result_type = "TGI"
result = "> 100 µM"

[[record]]
compound = "CCOC(=O)/C(C#N)=C/c1ccc2c(-c3c(OCC)ccc4cc(/C=C(\\C#N)C(=O)OCC)ccc34)c(OCC)ccc2c1"
result_type = "TGI"
result = "> 100 µM"

[[record]]
compound = "COc1cc2oc(=O)cc(C)c2cc1[N+](=O)[O-]"
result_type = "TGI"
result = "> 100 µM"

[[record]]
compound = "S=CN1CCCCC1"
result_type = "TGI"
result = "> 100 µM"

[[record]]
compound = "CC(C)(C)[OH+][O-].[O-]c1ccc(Cl)cc1C=Nc1ccc(Cl)cc1[O-].[O]=[V]"
result_type = "TGI"
result = "66.2 µM"

[[record]]
compound = "Oc1c(CN2CCC(N3CCOCC3)CC2)cc(Cc2cc(CN3CCC(N4CCOCC4)CC3)c(O)c3ncccc23)c2cccnc12"
result_type = "TGI"
result = "> 100 µM"

[[record]]
compound = "CCN(CC)CCn1c(C(C)(C)C)nc2ccccc21"
result_type = "TGI"
result = "> 100 µM"

[[record]]
compound = "Cc1[nH]c2ncn3nc(C(Cl)(Cl)Cl)nc3c2c1Cc1ccccc1"
result_type = "TGI"
result = "> 100 µM"

[[record]]
compound = "Cc1ccc(Nc2nc(=S)[nH]c3[nH]ncc23)cc1"
result_type = "TGI"
result = "> 100 µM"

[[record]]
compound = "OC1(c2ccccc2)CC2CCC(C1)N2CCc1ccccc1 (configuration not stated)"
result_type = "TGI"
result = "> 100 µM"

[[record]]
compound = "C[Si](C)(C)C#CCO[Si](C)(C)C"
result_type = "TGI"
result = "> 100 µM"

[[record]]
compound = "NC(=O)NC(=O)c1cnccn1"
result_type = "TGI"
result = "> 100 µM"

[[record]]
compound = "CCCN1C(=O)C/C(=C\\C(C)=O)Nc2ccccc21"
result_type = "TGI"
result = "> 100 µM"

[[record]]
compound = "CN(N=O)C(=O)Nc1c[nH]c(=O)[nH]c1=O"
result_type = "TGI"
result = "> 100 µM"

[[record]]
compound = "Cc1ccc(-c2c(C#N)c(-c3ccc(Cl)cc3)c(C#N)c(=O)n2NS(=O)(=O)c2ccccc2)cc1"
result_type = "TGI"
result = "> 100 µM"

[[record]]
compound = "Cc1ccc2c(c1)SSSSS2"
result_type = "TGI"
result = "48 µM"

[[record]]
compound = "CN1C2CCC1CC(OC(c1ccccc1)c1ccccc1)C2 (configuration not stated)"
result_type = "TGI"
result = "48.3 µM"


----------
// reported TGI per item
System: MDA-MB-231 breast
Experiment: NCI tumour cell line growth inhibition, 48 h
Result Type: TGI (µM)

[[record]]
compound = "COc1cccc(-c2nn(-c3ccccc3)cc2-c2ccnc(NCCNS(=O)(=O)c3ccc(Cl)cc3)c2)c1"
bound_sign = ">"
recorded_number = 100

[[record]]
compound = "O=[N+]([O-])c1ccc(N2CCN(Cc3ccccc3)CC2)c2c1no[n+]2[O-]"
bound_sign = "="
recorded_number = 3.08

[[record]]
compound = "O=C1c2ccccc2-c2c1c1ccccc1c(=O)n2CCCNCCCn1c2c(c3ccccc3c1=O)C(=O)c1ccccc1-2"
bound_sign = "="
recorded_number = 4.25

[[record]]
compound = "CN(N=O)C(=O)Nc1c[nH]c(=O)[nH]c1=O"
bound_sign = ">"
recorded_number = 100

[[record]]
compound = "S=CN1CCCCC1"
bound_sign = ">"
recorded_number = 100

[[record]]
compound = "CNc1ccccc1C(=O)N/N=C/C=C/c1ccccc1"
bound_sign = "="
recorded_number = 62

[[record]]
compound = "CC(O)C1OC(O)C2OC(C)(C)OC12 (configuration not stated)"
bound_sign = ">"
recorded_number = 100

[[record]]
compound = "CC(C(=O)N1C(=O)N(C(=O)C(C)C(O)c2ccccc2)C(c2ccccc2)C1c1ccccc1)C(O)c1ccccc1 (configuration not stated)"
bound_sign = "="
recorded_number = 77.9

[[record]]
compound = "C=C(O)c1ccccc1C#Cc1ccccc1C(=O)OC"
bound_sign = ">"
recorded_number = 10

[[record]]
compound = "Cc1ccc(C)c(NC(=O)C(=O)C2C(=O)C3=C(CC2(C)C)Nc2ccccc2S3)c1 (configuration not stated)"
bound_sign = ">"
recorded_number = 100

[[record]]
compound = "CCC1=C(C)/C(=C/c2[nH]c(C)c(C(=O)CCCCC(=O)OC)c2C)N=C1c1ccc[nH]1"
bound_sign = "="
recorded_number = 46.4

[[record]]
compound = "Cc1ccc(-c2c(C#N)c(-c3ccc(Cl)cc3)c(C#N)c(=O)n2NS(=O)(=O)c2ccccc2)cc1"
bound_sign = ">"
recorded_number = 100


meta.source: PubChem BioAssay (NCI)
